- TGT: KRas Q61H mutant (Homo sapiens (Human), UniProt P01116, Q61H)
- Sequence (P01116-2 other isoform, or with tags, fused parts or gaps Q61H): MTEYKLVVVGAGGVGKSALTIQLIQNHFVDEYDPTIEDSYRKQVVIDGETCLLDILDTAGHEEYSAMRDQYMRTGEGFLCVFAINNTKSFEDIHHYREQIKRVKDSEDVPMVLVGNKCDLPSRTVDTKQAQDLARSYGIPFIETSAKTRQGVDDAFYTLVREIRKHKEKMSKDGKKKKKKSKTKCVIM
- TEST: Ras GTP binding domain inhibition assay (labeled GTP)
- TEST CONTEXT: 20 μM compound; read-out: % Inhibition at 20 μM KRas Q61H
READOUT LABEL: inhibition at 20 µM

>>> print(df.to_string())
                                    molecule        readout_label         val
 0  O=C(c1csc2c(O)nc(-c3ccccn3)nc12)N1CCC(c2ccncc2)C1 (stereo not drawn) [drawing 2839]  inhibition at 20 µM   51 to 75%
 1  CC(C(=O)Nc1ccnc(-c2ccccn2)n1)c1ccc(C#N)cc1 (stereo not drawn) [drawing 2794]  inhibition at 20 µM   51 to 75%
 2  CC(C)(C)c1ccc(-c2csc3c(O)nc(-c4ccccn4)nc23)cc1 [drawing 2847]  inhibition at 20 µM   51 to 75%
 3  COc1ccc(N2CCN(C(=O)c3csc4c(O)nc(-c5ccccn5)nc34)CC2)cc1O [drawing 2802]  inhibition at 20 µM   51 to 75%
 4  COc1cccc(-c2csc3c(O)nc(-c4ccccn4)nc23)c1 [drawing 2872]  inhibition at 20 µM    1 to 25%
 5  O=C(c1csc2c(O)nc(-c3ccccn3)nc12)N1CCNC(c2ccccc2F)C1 (stereo not drawn) [drawing 2776]  inhibition at 20 µM  76 to 100%
 6  Oc1nc(-c2ccccn2)nc2c(-c3ccccc3Cl)csc12 [drawing 2695]  inhibition at 20 µM   51 to 75%
 7  CC1CN(c2ccccc2)CCN1C(=O)c1csc2c(O)nc(-c3ccccn3)nc12 (stereo not drawn) [drawing 2761]  inhibition at 20 µM  76 to 100%
 8  Oc1nc(-c2ccccn2)nc2sc3c(c12)CCNC3 [drawing 2851]  inhibition at 20 µM   51 to 75%
 9  N#Cc1ccc(COCC(=O)Nc2nc(-c3ccccn3)nc3sccc23)cc1 [drawing 2799]  inhibition at 20 µM  76 to 100%
10  CC(C(=O)Nc1nc(-c2ccccn2)nc2sccc12)c1ccc(C#N)cc1 (stereo not drawn) [drawing 2798]  inhibition at 20 µM  76 to 100%
11  COc1ccc(N2CCN(C(=O)c3csc4c(O)nc(-c5ccccn5)nc34)CC2)c(OC)c1 [drawing 2759]  inhibition at 20 µM   51 to 75%
12  Cc1cnc(-c2ccccn2)nc1NC(=O)C1CCCc2cc(C#N)ccc21 (stereo not drawn) [drawing 2827]  inhibition at 20 µM   51 to 75%
13  Cn1nnc2ccc(-c3csc4c(O)nc(-c5ccccn5)nc34)cc21 [drawing 2861]  inhibition at 20 µM   51 to 75%
14  Oc1nc(-c2ccccn2)nc2c(-c3ccccc3C(F)F)csc12 [drawing 2883]  inhibition at 20 µM   51 to 75%
15  Oc1nc(-c2ccccn2)nc2c(-c3ccc4c(c3)OCO4)csc12 [drawing 2879]  inhibition at 20 µM   51 to 75%
16  Cc1cc2nc(-c3ccccn3)nc(N)c2s1 [drawing 2836]  inhibition at 20 µM   51 to 75%
17  CNC(=O)c1ccc(-c2csc3c(O)nc(-c4ccccn4)nc23)cc1C [drawing 2885]  inhibition at 20 µM   25 to 50%
